Where do these numbers come from? They come from PubChem BioAssay (EPA / NIEHS).

# STUDY TARGET: Sodium channel protein type 1 subunit alpha (Rattus norvegicus) (UniProt P04774)
# EXPERIMENT: NVS_IC_rNaCh_site2: NovaScreen (NVS) Ion Channel Assay for rat Sodium Channel, Site 2 (NaCh) (AID 2283322);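 further: hit means loss of radioligand binding signal relative to DMSO so AC50 marks displacement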
Inconclusive results are not listed. Active and inactive are the calls of the source. How the source made its calls: active means hit-call score of the fitted dose curve at least 0.9, where 1 is the maximum; inconclusive means response in the unintended direction; inactive means score below 0.9.
Possible outcomes: active, inactive

>  <MOLECULE>
CS(=O)(=O)OCCCCOS(C)(=O)=O

>  <ASSIGNED LABEL>
inactive

$$$$
>  <MOLECULE>
CC(C)(C)CC(C)(C)c1ccc(OCCOCC[N+](C)(C)Cc2ccccc2)cc1

>  <ASSIGNED LABEL>
inactive

$$$$
>  <MOLECULE>
COc1ccc(CCN2CCC(Nc3nc4ccccc4n3Cc3ccc(F)cc3)CC2)cc1

>  <ASSIGNED LABEL>
active

$$$$
>  <MOLECULE>
CS(=O)(=O)c1ccc(C2=C(c3ccccc3)C(=O)OC2)cc1

>  <ASSIGNED LABEL>
inactive

$$$$
>  <MOLECULE>
COCCc1ccc(OCC(O)CNC(C)C)cc1 (centres undefined)

>  <ASSIGNED LABEL>
active

$$$$
>  <MOLECULE>
C[C@@H]1CCN(C(=O)[C@H](CCCN=C(N)N)NS(=O)(=O)c2cccc3c2NC[C@H](C)C3)[C@@H](C(=O)O)C1

>  <ASSIGNED LABEL>
active

$$$$
>  <MOLECULE>
COc1ccc(OC)c(N=Nc2c(O)ccc3ccccc23)c1

>  <ASSIGNED LABEL>
inactive

$$$$
>  <MOLECULE>
CC=Cc1ccc(OC)c(OC)c1

>  <ASSIGNED LABEL>
inactive

$$$$
>  <MOLECULE>
CN(c1nccc(=O)[nH]1)C1CCN(c2nc3ccccc3n2Cc2ccc(F)cc2)CC1

>  <ASSIGNED LABEL>
inactive

$$$$
